Cited source for all entries: ChEMBL document CHEMBL6134857

# measurement_target: GABA-A receptor; alpha-1/beta-3/gamma-2 (Homo sapiens) (UniProt P14867+P18507+P28472)
# protocol_notes: Inhibition of R-mTFD-MPAB-induced [3H]muscimol binding to full length human N-terminal flag-tagged alpha1-beta3-C-terminal 1D4-tagged gamma2 GABAA receptor extracted from Tetracycline-resistant HEK293 cell membrane assessed as fold change at 300 uM incubated for 30 mins
# Type: cell membranes
# test_context: filed as modulator
Let's look at some compounds and their measured fold change (FC).
Form: value (number only, do not type unit).

So what fold change (FC) did CN1C(=O)NC(=O)C2(CCCc3ccccc32)C1=O (stereo in doubt; 2h-2) get with GABA-A receptor; alpha-1/beta-3/gamma-2 (Homo sapiens) (UniProt P14867+P18507+P28472)?
0.8

So what fold change (FC) did CCCN1C(=O)NC(=O)C2(CCc3ccccc32)C1=O (stereo in doubt; 1j-2) get with GABA-A receptor; alpha-1/beta-3/gamma-2 (Homo sapiens) (UniProt P14867+P18507+P28472)?
0.95

So what fold change (FC) did CN1C(=O)NC(=O)C2(CCCCc3ccccc32)C1=O (stereo in doubt; 3h-2) get with GABA-A receptor; alpha-1/beta-3/gamma-2 (Homo sapiens) (UniProt P14867+P18507+P28472)?
0.98

So what fold change (FC) did `COc1ccc2c(c1)C1(CC2)C(=O)NC(=S)NC1=O` get with GABA-A receptor; alpha-1/beta-3/gamma-2 (Homo sapiens) (UniProt P14867+P18507+P28472)?
1.04

So what fold change (FC) did `COc1ccc2c(c1)C1(CC2)C(=O)NC(=O)NC1=O` get with GABA-A receptor; alpha-1/beta-3/gamma-2 (Homo sapiens) (UniProt P14867+P18507+P28472)?
0.69

* * *

# measurement_target: GABA-A receptor; alpha-1/beta-3/gamma-2 (Homo sapiens) (UniProt P14867+P18507+P28472)
# protocol_notes: Inhibition of R-mTFD-MPAB-induced [3H]muscimol binding to full length human N-terminal flag-tagged alpha1-beta3-C-terminal 1D4-tagged gamma2 GABAA receptor extracted from Tetracycline-resistant HEK293 cell membrane assessed as fold change at 300 uM incubated for 30 mins
# Type: cell membranes
# test_context: filed as modulator
recorded_endpoint: fold change (FC)

[
  {
    "compound": "Cc1ccc2c(c1)C1(CC2)C(=O)NC(=O)NC1=O",
    "fold change (FC)": 0.87
  },
  {
    "compound": "O=C1NC(=O)C2(CCc3ccc(Cl)cc32)C(=O)N1",
    "fold change (FC)": 0.88
  },
  {
    "compound": "COc1ccc2c(c1)C1(CC2)C(=O)NC(=O)N(C)C1=O (stereo in doubt; 7h-2)",
    "fold change (FC)": 0.73
  },
  {
    "compound": "CCCN1C(=O)NC(=O)C2(CCc3ccccc32)C1=O (stereo in doubt; 1j-1)",
    "fold change (FC)": 0.95
  },
  {
    "compound": "O=C1NC(=NO)NC(=O)C12CCc1ccccc12 (stereo not given)",
    "fold change (FC)": 0.66
  }
]

Field request: fold change (FC) | item: N#CSC1CC2(C(=O)NC(=O)NC2=O)c2ccccc21 (stereo in doubt; 1y-2)
0.67

Field request: fold change (FC) | item: `CC(C)c1ccc2c(c1)C1(CC2)C(=O)NC(=S)NC1=O`
0.87

Field request: fold change (FC) | item: Cc1ccc2c(c1)C1(CC2)C(=O)NC(=O)N(C)C1=O (stereo in doubt; 4h-2)
0.54

Field request: fold change (FC) | item: N=C1NC(=O)C2(CCc3ccc(Br)cc32)C(=O)N1 (stereo not given)
0.53

Field request: fold change (FC) | item: CC1Cc2ccccc2C12C(=O)NC(=O)NC2=O (stereo in doubt; 10g-2)
0.95
